tested on: human coronary artery smooth muscle cell proliferation; test: In vitro cell culture study of coronary artery smooth muscle cell proliferation; type: cell-based; conditions: human coronary artery smooth muscle cells; read-out: anti-proliferative IC50
pIC50: −log10 of the molar value.
Attribute measured: pIC50

Ask: Tell us which pIC50 value is on record for CC(/C=C/C(=O)NO)=C\[C@@H](C)C(=O)c1ccc(N(C)C)cc1
Reply: ~8.22

These entries and their values trace back to patent US20090104246A1.
